apparent Kd values, listed per item
tested on: MS2 coat protein; experiment: apparent Kd, MS2 coat protein; higher = weaker binding; RNA-MaP array; FMN 200 µM where present; conditions: ligand present: flavin mononucleotide; designed as: ON switch for flavin mononucleotide

macromolecule sequence	apparent Kd [nM]
CCAGAUAUGUAAGGAUAUAUAGUGGAAUACACUAUAGAAGGUAUGUGAGAACAUGAGGAUCACCCAUGUCAUUGGAUAUCUGGA	39.3
GCGUUGAUGUAGAAGGUACAUGAAUAUAUUUAAUACCUCAAGUAACAUGAGGAUCACCCAUGUAGUAAGGAUAUACAUGAACGC	56.1
UGGUACUAGAGAGGAUAUGGGAAGAUACAUGAGGAUCACCCAUGUUUAAGAAUGCCGAGAGGCAACUAGAAGGCCCUAGUACCU	31.5
UCAUAUAUACAAGGAUAUCAAUGAUUUAUAGAUCCUACAUGAGGAUCACCCAUGUUUUUAUAUUUUGAGAAGGUGUAGUGUCUU	333

====

system: MS2 coat protein; assay: apparent Kd, MS2 coat protein; higher = weaker binding; RNA-MaP array; settings: designed as: OFF switch for flavin mononucleotide; no ligand
// Condition not met strictly below 0.02 µM in apparent Kd; Condition met otherwise

macromolecule sequence	test system	assigned class
GUAACGGAAGGAUAUACGCUUUAAUGGACAGGUUCGAUGGCACAUGAGGAUCACCCAUGUAGAAGGUCCCUAAA	MS2 coat protein	Condition not met
AAUCGCCGUAAGAAGGCCACAUAAACAUGAGGAUCACCCAUGUACAGGCGACCUUUAUAUAAUGUGGAGGAUAUUAACUGCUUC	MS2 coat protein	Condition met
CGGGUAACCGAGAAGGACUUAAGACUACGUUAAGUAGGAUAUCGAUUUGUUACAUGAGGAUCACCCAUGUCUGGUCUUGACCGC	MS2 coat protein	Condition not met
AUAUAAUCAGGAUAUACAUGUUUCUUUAACACCGAGGCCGUACAUGAGGAUCACCCAUGUAGAAGGGAUUGCGG	MS2 coat protein	Condition not met
AAAGGUUGAGGAUAUCAUCCUCCAAACAUGAGGAUCACCCAUGUUGAUCUUCACGUACGAUGAGAAGGCAACACCU	MS2 coat protein	Condition met
GACAUGGGACAGAAGGCGCGUCACAUUUUUAUGCGAGGAUAUGUCACUACAUGAGGAUCACCCAUGUGAGUUGGGAUCUCGAAA	MS2 coat protein	Condition met
UAAUCCAACUCGUAAUGACAUGAGGAUCACCCAUGUGAGCGUGAGGAUAUUGUAAGCUAGGAGGUCAAGAAGGCACGCCAGGAG	MS2 coat protein	Condition not met
GCAUUAACAAAGGAUAUGCAUUUCGUCAAUGUAGCAGAAGGUUGUACAUGAGGAUCACCCAUGUGUGAUCGAAC	MS2 coat protein	Condition met
CGAACUAGCUAGAAGGAACAGGCGACUAAAGUGUUAGGAUAUAGGCGUAUGUGCAGACAUGAGGAUCACCCAUGUGUCGAAUUU	MS2 coat protein	Condition not met
CAGUUACUGUAGAAGGAUAUCAUUAAUACGGAUAUAGGAUAUACUCCGGGUGGAAUCGUGAACAUGAGGAUCACCCAUGUUUCG	MS2 coat protein	Condition not met
GUGAUGCAGCAGAAGGGAUCGCUAAGGUUGUAAUCAGGAUAUGCAGUCGCUAGGGCGCCUCGACAUGAGGAUCACCCAUGUUUG	MS2 coat protein	Condition met
GGAAUGUGAGGAUAUGUUAAGAAGGCGCGACGUUGGGAGACACAGAAGGCACAUGAGGAUCACCCAUGUUAUGA	MS2 coat protein	Condition met
AAAGAACAAGGAUAUACAUGAGGAUCACCCAUGUCACAGAUAGUAGAACCACAAGCAUGUAGAAGGUGAGUCUA	MS2 coat protein	Condition not met
AGUCUUCUCGUAAGGAUAUUUAGGAAUUCAUCUCCAAAGAAGGUACAUGAGGAUCACCCAUGUGAAGGGCUUUU	MS2 coat protein	Condition not met
AAUUGUGCAGGAUAUUCACAGGUGAACAUGAGGAUCACCCAUGUAGCAUGAGGUGUAAUCGAAGAAGGGCAGGUCC	MS2 coat protein	Condition met
